# assayed.system: recombinant human kinase domain of TYK2 (Homo sapiens (Human))
# Sequence (P29597 897-1176): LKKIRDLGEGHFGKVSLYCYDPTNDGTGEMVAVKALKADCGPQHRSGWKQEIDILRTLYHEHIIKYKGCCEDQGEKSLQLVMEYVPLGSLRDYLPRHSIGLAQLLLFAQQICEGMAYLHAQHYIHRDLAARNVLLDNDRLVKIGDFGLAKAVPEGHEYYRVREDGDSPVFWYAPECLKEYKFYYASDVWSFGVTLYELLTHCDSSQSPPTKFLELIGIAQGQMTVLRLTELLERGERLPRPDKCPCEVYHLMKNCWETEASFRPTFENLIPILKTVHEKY
# experiment: JAK Caliper enzyme assay at 1 mM ATP (TYK2)
# Format: biochemical
# assay.conditions: 1 mM ATP; read-out: IC50 (nM) TYK2
// boundary case: IC50 equal to 100 nM maps to Criterion not met; strictly smaller maps to Criterion met

> print(dat)
                                   molecule   class.assignment
1  O=C(c1ccno1)N1[C@@H]2CC[C@H]1CN(c1ccnc(Nc3cn[nH]c3)n1)C2  Criterion not met
2  O=C([C@@H]1CC1(F)F)N1[C@@H]2CC[C@H]1CN(c1ccnc(Nc3cnc(CO)c(F)c3)n1)C2      Criterion met
3  Cn1cc(Nc2ncc(F)c(N3C[C@@]4(CO)C[C@@]4(NC(=O)[C@@H]4CC4(F)F)C3)n2)cn1      Criterion met
4  CCNC(=O)c1ccc(Nc2ncc(F)c(N3CC4CC(C3)N4C(=O)C(F)(F)F)n2)cc1C      Criterion met

*Q* Does CCNC(=O)N1[C@@H]2CC[C@H]1CN(c1ccnc(Nc3cnc(C(=O)NC)c(C)c3)n1)C2 have IC50 strictly under 100 nM?
*A* Criterion met

*Q* Does CNC(=O)c1ncc(Nc2nccc(N3C[C@H]4CC[C@@H](C3)N4C[C@@H]3CC3(F)F)n2)cc1C (single isomer, unassigned) have IC50 strictly under 100 nM?
*A* Criterion not met

* * *

Kindly state IC50 for each of the entries shown.
# assayed.system: recombinant human kinase domain of JAK1 (Homo sapiens (Human), UniProt P23458)
# Sequence (P23458 875-1153): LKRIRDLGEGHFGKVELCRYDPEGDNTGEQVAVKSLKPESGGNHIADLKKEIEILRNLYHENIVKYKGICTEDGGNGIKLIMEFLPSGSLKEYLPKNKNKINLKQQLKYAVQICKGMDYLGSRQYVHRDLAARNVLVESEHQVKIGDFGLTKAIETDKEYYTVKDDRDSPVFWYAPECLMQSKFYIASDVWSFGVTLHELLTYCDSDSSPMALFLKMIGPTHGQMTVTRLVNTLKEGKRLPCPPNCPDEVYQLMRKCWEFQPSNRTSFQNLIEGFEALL
# experiment: JAK Caliper enzyme assay at 1 mM ATP (JAK1);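 note: microfluidic mobility-shift readout of synthetic fluorescent peptide phosphorylation, percent product converted from peak height, inhibition relative to DMSO-only wells as uninhibited baseline, room temperature incubation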
# Format: biochemical
# assay.conditions: 1 mM ATP; read-out: IC50 (nM) JAK1

Study these solved cases before continuing.
> print(dat)
                                   compound                            assayed.system  recorded.metric  meas.value
1  Cn1cc(Nc2nccc(N3C[C@H]4CC[C@@H](C3)N4C(=O)[C@@H]3C[C@@H]3F)n2)cn1 [Example 43]  recombinant human kinase domain of JAK1 (Homo sapiens (Human), UniProt P23458)             IC50      902 nM
2  C[C@@H]1[C@@H]2CN(c3nc(Nc4cnn(C5COC5)c4)ncc3F)C[C@]12NC(=O)[C@@H]1CC1(F)F [Example 99]  recombinant human kinase domain of JAK1 (Homo sapiens (Human), UniProt P23458)             IC50       65 nM
3  O=C([C@@H]1CC1(F)F)N1[C@@H]2CC[C@H]1CN(c1ccnc(Nc3cn[nH]c3)n1)C2 [Example 51]  recombinant human kinase domain of JAK1 (Homo sapiens (Human), UniProt P23458)             IC50       13 nM

We next turn to a different compound, shown below.
*Q* Give a short answer stating reported IC50 for Cc1cc(Nc2nccc(N3C[C@H]4CC[C@@H](C3)N4C(=O)[C@@H]3CC3(F)F)n2)cnc1C(N)=O [Example 35] .
*A* 170 nM

* * *

# assayed.system: recombinant human kinase domain of TYK2 (Homo sapiens (Human))
# experiment: JAK Caliper enzyme assay at 1 mM ATP (TYK2);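 note: microfluidic mobility-shift readout of synthetic peptide phosphorylation by TYK2, tuned to 20–30% conversion at room temperature, reaction stopped with EDTA, DMSO-only wells as uninhibited baseline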
# Format: biochemical
# assay.conditions: 1 mM ATP; read-out: IC50 (nM) TYK2
// boundary case: IC50 equal to 70 nM maps to F; strictly smaller maps to T

Here are 5 compounds together with their reported answers.
> print(dat)
                                   compound                            assayed.system  class.assignment
1  CNC(=O)c1ncc(Nc2nccc(N3C[C@H]4CC[C@@H](C3)N4CC3(C)COC3)n2)cc1C  recombinant human kinase domain of TYK2 (Homo sapiens (Human))                 T
2  CCNC(=O)c1ccc(Nc2nccc(N3CC4CC(C3)N4C(=O)C3CC3)n2)cc1C  recombinant human kinase domain of TYK2 (Homo sapiens (Human))                 F
3  CNC(=O)c1ncc(Nc2ncc(F)c(N3C[C@H]4[C@@H](C)[C@@]4(NC(=O)C4CC4)C3)n2)cc1C  recombinant human kinase domain of TYK2 (Homo sapiens (Human))                 F
4  CNC(=O)c1ncc(Nc2nccc(N3C[C@H]4CC[C@@H](C3)N4C(=O)[C@@H]3C[C@H]3C#N)n2)cc1F  recombinant human kinase domain of TYK2 (Homo sapiens (Human))                 T
5  C[C@@H]1[C@@H]2CN(c3nc(Nc4cnc(CO)c(Cl)c4)ncc3F)C[C@]12NC(=O)C1CC1  recombinant human kinase domain of TYK2 (Homo sapiens (Human))                 F

*Q* Does CCNC(=O)N1[C@@H]2CC[C@H]1CN(c1ccnc(Nc3cnc(C(=O)NC)c(F)c3)n1)C2 have IC50 strictly under 70 nM?
*A* F
